Quick reference for growth inhibition among some compounds
test: NCI Yeast Anticancer Drug Screen. Data for the sgs1 mgt1 strain (AID 161);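 note: 0% = growth of cultures given vehicle only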; conditions: S. cerevisiae sgs1 mgt1 strain, at 50.0 µM, active compounds read high
The panel holds about 79,000 compounds, 15% with a hit somewhere; the sample as a whole holds those more often.
reportedEndpoint: growth inhibition (%)

In [3]: df
Out[3]:
                                    compound  obsvalue
 0                  CCC(=O)N(C)C1(C#N)CCCCC1        13
 1   C/C(=N\N=C(/C)c1ccc(O)cc1O)c1ccc(O)cc1O      -3.5
 2  CC(=O)NS(=O)(=O)c1ccc(NC(=O)COC(=O)c2cccc3c(=O)c4ccccc4[nH]c23)cc1     -48.6
 3  Cc1ccc(NC(=S)NC(=O)c2cccc([N+](=O)[O-])c2)cc1C      14.5
 4  O=[N+]([O-])c1cccc(C2OCC3(CO2)COC(c2cccc([N+](=O)[O-])c2)OC3)c1 (stereo unspecified)       6.5
 5  COC(=O)C1=NNC(c2ccc(C)cc2)C1 (stereo unspecified)     -0.95
 6  CCOC(=O)C1(C(O)(C2CC2)C2(C(=O)OCC)CC2)CC1     -12.3
 7    COc1ccc(OC)c(-c2nc3ccccc3c(=O)[nH]2)c1      3.35
 8  Nc1ccc2c(c1)C(=O)N(OS(=O)(=O)c1ccccc1)C2=O      41.2
 9        COC(=O)c1ncn(C(C(=O)OC)C(=O)OC)c1O     -4.75
10             O=c1[nH]cnc2oc(-c3ccccc3)nc12     -6.35

---

test: NCI Yeast Anticancer Drug Screen. Data for the mec2-1 strain (AID 157); details: S. cerevisiae mec2-1 strain, at 50.0 µM, active compounds read high
About 79,000 compounds went through this panel and 15% of them were active in at least one assay; those are over-represented in the sample as a whole.
reportedEndpoint: growth inhibition (%)

>>> df
                                    compound   reportedendpoint  unitsymbol  obsvalue
 0  CCOC(=O)C(CCCCC(CN(CC)CC)(C(=O)OCC)c1ccccc1)(CN(CC)CC)c1ccccc1 (configuration not stated)  growth inhibition           %     -10.2
 1                  Brc1cccc(CCOCc2ccccc2)c1  growth inhibition           %     -11.6
 2  O=C(NC(Cc1ccccc1)P(=O)(O)c1ccccc1)OCc1ccccc1 (configuration not stated)  growth inhibition           %     -30.5
 3  C=C(C)CC1CC(=O)OC1=O (configuration not stated)  growth inhibition           %     -16.4
 4          CCOC(=S)SCc1ccc([N+](=O)[O-])cc1  growth inhibition           %      18.4
 5      O=C1OC(c2ccc(Cl)cc2)=C/C1=C/c1ccccn1  growth inhibition           %        10
 6           CCCCCCCCCCCCCCCCSc1ccc2ccccc2c1  growth inhibition           %     -13.8
 7  O=C1/C(=C/c2ccc(Cl)cc2)CCC1CCN1CCOCC1 (configuration not stated)  growth inhibition           %      40.5
 8  COc1cccc(CN2C(=O)NC(C)(C)C2O)c1 (configuration not stated)  growth inhibition           %      28.4
 9      CC(=O)CC(=O)Nc1ccc(NC(=O)CC(C)=O)cc1  growth inhibition           %     -30.9
10                            N#CCCCCN1CCCC1  growth inhibition           %      -8.7
11  CC(=O)OCC1OC(n2cc(I)c(=O)[nH]c2=O)C(OC(C)=O)C(OC(C)=O)C1OC(C)=O (configuration not stated)  growth inhibition           %     -22.1

---

assay: NCI Yeast Anticancer Drug Screen. Data for the mec2-1 strain (AID 157); details: S. cerevisiae mec2-1 strain, at 50.0 µM, active compounds read high
The panel holds about 79,000 compounds, 15% with a hit somewhere; the sample as a whole holds those more often.
reportedEndpoint: growth inhibition (%)

                                    molecule   reportedendpoint  obsvalue
 0                   O=C(CCc1cccs1)OC1CCCCC1  growth inhibition      7.05
 1  CCN(CC)C(=O)c1c2nc3c(C(=O)N(CC)CC)ccc(C)c3oc-2c(C)c(=O)c1N  growth inhibition      7.35
 2                          C=CCCCCCCCCCOC=O  growth inhibition      -5.2
 3  CCCCC(CCCC)NCC(C)OC(=O)c1ccc(N)cc1 (stereo unspecified)  growth inhibition     -2.35
 4  CCC1(CC)C(=O)N(C(=O)c2ccccc2)N(C(=O)c2ccc(Cl)cc2)C1=O  growth inhibition      18.7
 5  NC(CCC(=O)NC1(C(=O)O)C2CC3CC(C2)CC1C3)C(=O)O (stereo unspecified)  growth inhibition      -0.1
 6  Cc1ccc(C2(c3ccc(Cl)cc3)c3ccccc3C3=NCCN32)cc1 (stereo unspecified)  growth inhibition      9.15
 7         CCOC(=O)c1cc(=O)[nH]c2ccc(OC)cc12  growth inhibition      22.2
 8                O=C(O)Cc1ccc(-c2ccccc2)cc1  growth inhibition      23.6
 9  COCCN(C)C(c1ccccc1)C(O)c1ccccc1 (stereo unspecified)  growth inhibition     -12.9
10  O=c1[nH]c(-c2ccccc2)nc2cc([N+](=O)[O-])c(/C(Cl)=C/c3ccccc3)cc12  growth inhibition      14.4

---

assay: NCI Yeast Anticancer Drug Screen. Data for the mlh1 rad18 strain (AID 175); conditions: S. cerevisiae mlh1 rad18 strain growth inhibition; at 50.0 µM; active compounds read high
About 79,000 compounds went through this panel and 15% of them were active in at least one assay; those are over-represented in the sample as a whole. Where a SMILES comes first, the peptide text is derived from it. The star is where a group is joined. Boc = CC(C)(C)OC(=O)*
reportedEndpoint: growth inhibition (%)

                                    molecule   reportedendpoint  unitsymbol  obsvalue
 0                 CSc1nc2c(cnn2C)c(=O)[nH]1  growth inhibition           %      24.6
 1         O=C1CCCc2ccc([N+](=O)[O-])c(O)c21  growth inhibition           %      8.65
 2   CCCC(C)C(C)O (configuration not stated)  growth inhibition           %     -14.8
 3           Cc1c2ccccc2cc2c1ccc1c(Br)cccc12  growth inhibition           %       5.8
 4                      CSc1n[n+]2c(s1)SCCC2  growth inhibition           %      0.05
 5  COC(=O)C1CCC(C)(C(N)=O)C1(C)C (configuration not stated)  growth inhibition           %       9.7
 6   C/C(=C(/C)c1cc[n+](C)cc1)c1cc[n+](C)cc1  growth inhibition           %      68.5
 7  C=C(CN(C)C)C1(c2ccccc2)CC2(CCCC2)C(=O)O1 (configuration not stated)  growth inhibition           %      25.5
 8             Cc1cccc(CNc2ncnc3[nH]ncc23)c1  growth inhibition           %      3.15
 9  NC1=C(O)/C(=N/NS(=O)(=O)c2ccccc2)C(c2cccc(Cl)c2)O1 (configuration not stated)  growth inhibition           %      21.7
10             CNC(=O)OCC1=CC(=O)C=C(OC)C1=O  growth inhibition           %         9
11  COc1c2c(cc3occ(-c4ccc(CC=C(C)C)cc4)c(=O)c13)OC(C)(C)C=C2  growth inhibition           %     -35.5
12  NC(N)=NC(N)=Nc1ccc(-c2ccc(N=C(N)N=C(N)N)cc2)cc1  growth inhibition           %      13.6
13                      CCOC(=O)CCc1cnc[nH]1  growth inhibition           %     -0.75
14          CC1=NN(c2nc(N)nc(CO)n2)C(C)(C)C1  growth inhibition           %     -72.5
15  CC(=O)OC1CC(=O)OC(C)(C)C2CC(=O)C3(C)C(CCC4(C)C(c5ccoc5)OC(=O)C5OC543)C12C (configuration not stated)  growth inhibition           %      21.1
16  COc1ncn(C2CC(OC(=O)c3ccc(C)cc3)C(COC(=O)c3ccc(C)cc3)O2)c(=O)n1 (configuration not stated)  growth inhibition           %     -3.05
17  O=c1c2cc(-c3ccccc3)sc2nc2n1N=C(c1ccccc1)CS2  growth inhibition           %     -18.6
18                  CC(C)c1ccc(C(C)C)c(Cl)c1  growth inhibition           %      12.5
19                      COc1cc(CC(=O)O)ccc1O  growth inhibition           %     -0.55
20  C=CCC1(/C(=C\CC)CCC)C(=O)NC(=O)N=C1N (configuration not stated)  growth inhibition           %       8.3
21                      COc1ccc(NC(=O)CN)cc1  growth inhibition           %       0.7
22               CC1=NN(c2nc(N)nc(CCl)n2)CC1  growth inhibition           %     -29.2
23  COC(=O)C(Cc1ccccc1)NC(=O)C(Cc1ccccc1)NC(=O)OC(C)(C)C (stereo not drawn) (Boc-Phe-Phe-OMe; configuration not given here)  growth inhibition           %      -6.4
24            Cc1nc(N)nc(C)c1N=Nc1cccc(Cl)c1  growth inhibition           %      3.85
25  COc1ccc(-c2coc3c4c(c(CC=C(C)C)c(O)c3c2=O)OC(C)(C)C=C4)cc1OC  growth inhibition           %      16.8
26  CN(C)c1ccc(C2(c3ccc(N(C)C)cc3)NNC(=O)c3ccccc32)cc1  growth inhibition           %      -0.3
27  CCCCCCNC(=O)CCC(NC(=O)c1ccc(N(C)Cc2cnc3nc(N)nc(N)c3n2)cc1)C(=O)NCCCCCC (configuration not stated)  growth inhibition           %      28.2
28  Cc1c2oc3c(C)ccc(C(=O)NCCN4CCCC4)c3nc-2c(C(=O)NCCN2CCCC2)c(N)c1=O  growth inhibition           %      9.65
29  COc1ccc2c(c1)C/C(=C\c1ccc(O)c(OC)c1)C2=O  growth inhibition           %     -10.1
30                        O=S(=O)(O)c1ccccc1  growth inhibition           %      1.25
31           CN(C)c1ccc(C=Nc2cc(Cl)ccc2O)cc1  growth inhibition           %      52.9
32                C=CCOCn1cc(C)c(=O)[nH]c1=O  growth inhibition           %      17.4
33                 S=C(NCc1ccco1)Nc1ccccc1Cl  growth inhibition           %       1.2
34        Cc1ccc(S(=O)(=O)N/N=C/C(C)(C)C)cc1  growth inhibition           %      16.6
35  CCOC(=O)c1c(/N=C/c2ccc(N(C)C)cc2)sc2c1CCCC2  growth inhibition           %      5.85
36  COc1cc(O)c2c(=O)c(OC)c(-c3ccc4c(c3)OCO4)oc2c1  growth inhibition           %     -44.4
37  COc1ccc(N2C(=O)OC3(CCN(Cc4ccccc4)CC3)C2=O)cc1  growth inhibition           %      16.4
38             CC1(C)OC(=O)ON(Cc2ccccc2)C1=O  growth inhibition           %     -13.4
39  Cn1c(=O)c2c(nc(N(CCN(N=O)c3nc4c(c(=O)n(C)c(=O)n4C)n3C)N=O)n2C)n(C)c1=O  growth inhibition           %     -0.65
40       CC(=O)/C(C(=N)C(=O)c1ccccc1)=C(\C)O  growth inhibition           %      0.25
41  O=c1cc(NC(c2ccccc2)c2ccccc2)[nH]c(=O)[nH]1  growth inhibition           %      27.6
42         CC(C)(C)CC(C)(C)Nc1ccc(C(N)=O)cc1  growth inhibition           %       9.6
43         Cc1nc(C#N)c(=N)n(CCCO)c1-c1ccccc1  growth inhibition           %      5.15
44  Cc1cccc2c(SCCCCCCSc3c4ccccc4nc4c(C)cccc34)c3ccccc3nc12  growth inhibition           %      7.05
45  COc1ccc2c(c1)CCC1=C2CCC(C(=O)O)C1(C)C(=O)O (configuration not stated)  growth inhibition           %     -25.4
46  C#CC(CCC)NC(C)(C)C (configuration not stated)  growth inhibition           %      21.3

This collection of values is drawn from PubChem BioAssay (NCI).
